experiment: qHTS of pediatric cancer cell lines to identify multiple opportunities for drug repurposing: Primary screen for NB-EBc1 cells (AID 1347095); settings: NB-EBc1 neuroblastoma viability, CellTiter-Glo luminescence, 48 h; series mostly up to 46 µM; also: potency is read from the fitted curve at half-maximal effect
Records with an inconclusive call do not appear. Active and inactive are the calls of the source. Calls follow the shape of the dose curve; as a rule, active = well fitted cell-killing curve with a large enough effect; inconclusive = small, poorly fitted or top-dose-only effect; inactive = no such curve, though single readings can be large or run the other way.
assay readout: Potency

Here's what some known entries look like.
-- ask Data request, read-out Potency, for CCNC(=O)Nc1ccc(Oc2ncnc(N)c2C=NOC)cc1Cl
-- reply 2.64 µM (active)

-- ask // returns reported Potency for input CN1CCC[C@H]1CCO[C@](C)(c1ccccc1)c1ccc(Cl)cc1
-- reply inactive

-- ask Please report the recorded Potency for O=C(O)C1=NC(C(=O)O)CC(C=CN2c3cc(O)c(OC4OC(CO)C(O)C(O)C4O)cc3CC2C(=O)O)=C1 (stereo not given) .
-- reply inactive

-- ask Given CCc1cccc(CC)c1NC(=O)N1Cc2[nH]nc(NC(=O)c3ccc(N4CCN(C)CC4)cc3)c2C1 , state its recorded Potency.
-- reply inactive

-- ask Please report the recorded Potency for N#CC(=C1Nc2ccccc2S1)c1ccnc(OCc2ccc(CN3CCOCC3)cc2)n1 .
-- reply 0.526 µM (active)

Lab note: each molecule below needs its Potency filled in.
1. CN[C@@H]1CN(c2ccc3c(=O)c(C(=O)O)cn(-c4nccs4)c3n2)C[C@@H]1OC
2. COc1ccc(-c2oc3c(CC=C(C)C)c(O)cc(O)c3c(=O)c2O)cc1
3. CN1C(=O)C(Cc2c[nH]c3ccccc23)NC1=S (stereo not given)
4. CN(C)c1ccc(-c2nc3ncc(Cl)c(N4CCN(CC(=O)Nc5nccs5)CC4)c3[nH]2)cc1

-- reply
1. 0.407 µM (active)
2. 18.7 µM (active)
3. inactive
4. 2.35 µM (active)

For each listed entry, give its Potency.
1. Cc1cc2nc3c(=O)[nH]c(=O)nc-3n(CC(O)C(O)C(O)CO)c2cc1C (stereo not given)
2. Cc1nc(NC(=O)N2CCC[C@@H]2C(N)=O)sc1-c1csc(C(C)(C)C)n1

-- reply
["inactive", "4.69 µM (active)"]

// each listed molecule needs a value for Potency
1. C[C@]12CCC3=C4CCC(=O)C=C4CC[C@@H]3[C@H]1CC[C@@]2(O)CC#N
2. C[C@@H](O[C@H]1OCCN(Cc2n[nH]c(=O)[nH]2)[C@@H]1c1ccc(F)cc1)c1cc(C(F)(F)F)cc(C(F)(F)F)c1
3. CCC[C@@H](NC(=O)[C@@H]1[C@H]2CCC[C@@H]2CN1C(=O)[C@@H](NC(=O)[C@@H](NC(=O)c1cnccn1)C1CCCCC1)C(C)(C)C)C(=O)C(=O)NC1CC1
4. COc1ccnc(CS(=O)c2nc3ccc(OC(F)F)cc3[nH]2)c1OC (stereo not given)
5. c1cc(OCCN2CCCCC2)cc(-c2n[nH]c3ccc(-c4ncn[nH]4)cc23)c1
6. CC(C)(OCc1nn(Cc2ccccc2)c2ccccc12)C(=O)O

-- reply
1: inactive; 2: 23.5 µM (active); 3: inactive; 4: inactive; 5: inactive; 6: 11.8 µM (active)

For every item in the list below, what is its measured Potency?
1. COc1nccc(-c2c(-c3ccc(F)cc3)ncn2C2CCC(O)CC2)n1 (stereo not given)
2. CCC(=C(CC)c1ccc(O)cc1)c1ccc(O)cc1
3. C[C@H]1O[C@@H](n2cc(F)c(=O)[nH]c2=O)[C@H](O)[C@H]1O

-- reply
1: inactive; 2: 5.9 µM (active); 3: 4.69 µM (active)

Sourced from PubChem BioAssay (NCATS)
